The measured values listed here are drawn from patent US20160326228A1.

# subjectOfTest: T1, Growth and Differentiation Factor-8 (GDF8) (UniProt O14793 267-375)
# T1 construct: also called myostatin
# T1 sequence (looked up): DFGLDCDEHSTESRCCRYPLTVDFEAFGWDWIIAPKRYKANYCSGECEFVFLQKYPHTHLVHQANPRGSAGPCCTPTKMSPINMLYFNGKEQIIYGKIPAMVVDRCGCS
# methodDescription: BiaCore; receptor-Fc captured by anti-hFc antibody, ligand injected
The threshold is inclusive: koff of exactly 0.0002 s⁻¹ counts as class 1; values below receive class 0.

binder: ActRIIB(L79D 20-134)-hFc (Fc fusion, also called GDF Trap) GRGEAETRECIYYNANWELERTNQSGLERCEGEQDKRLHCYASWRNSSGTIELVKKGCWDDDFNCYDRQECVATEENPQVYFCCCEGNFCNERFTHLPEAGGPEVTYEPPPTAPTGGGTHTCPPCPAPELLGGPSVFLFPPKPKDTLMISRTPEVTCVVVDVSHEDPEVKFNWYVDGVEVHNAKTKPREEQYNSTYRVVSVLTVLHQDWLNGKEYKCKVSNKALPVPIEKTISKAKGQPREPQVYTLPPSREEMTKNQVSLTCLVKGFYPSDIAVEWESNGQPENNYKTTPPVLDSDGSFFLYSKLTVDKSRWQQGNVFSCSVMHEALHNHYTQKSLSLSPGK
answerLabel: class 1
//
binder: ActRIIB(R64K 20-129)-hFc (Fc fusion, not shown: linker (if any) and human Fc (hFc)) GRGEAETRECIYYNANWELERTNQSGLERCEGEQDKRLHCYASWKNSSGTIELVKKGCWLDDFNCYDRQECVATEENPQVYFCCCEGNFCNERFTHLPEAGGPEVTYEPP
answerLabel: class 1
//
binder: ActRIIB(R64K 20-134)-hFc (Fc fusion, not shown: linker (if any) and human Fc (hFc)) GRGEAETRECIYYNANWELERTNQSGLERCEGEQDKRLHCYASWKNSSGTIELVKKGCWLDDFNCYDRQECVATEENPQVYFCCCEGNFCNERFTHLPEAGGPEVTYEPPPTAPT
answerLabel: class 0
//
binder: ActRIIB(L79E 20-134)-hFc (Fc fusion) GRGEAETRECIYYNANWELERTNQSGLERCEGEQDKRLHCYASWRNSSGTIELVKKGCWEDDFNCYDRQECVATEENPQVYFCCCEGNFCNERFTHLPEAGGPEVTYEPPPTAPTGGGTHTCPPCPAPELLGGPSVFLFPPKPKDTLMISRTPEVTCVVVDVSHEDPEVKFNWYVDGVEVHNAKTKPREEQYNSTYRVVSVLTVLHQDWLNGKEYKCKVSNKALPVPIEKTISKAKGQPREPQVYTLPPSREEMTKNQVSLTCLVKGFYPSDIAVEWESNGQPENNYKTTPPVLDSDGSFFLYSKLTVDKSRWQQGNVFSCSVMHEALHNHYTQKSLSLSPGK
answerLabel: class 1
//
binder: ActRIIB(P129S, P130R 20-134)-hFc (Fc fusion, T0017 prints a P129S P130A variant; kept as a separate molecule; not shown: linker (if any) and human Fc (hFc)) GRGEAETRECIYYNANWELERTNQSGLERCEGEQDKRLHCYASWRNSSGTIELVKKGCWLDDFNCYDRQECVATEENPQVYFCCCEGNFCNERFTHLPEAGGPEVTYEPSRTAPT
answerLabel: class 0

Input line: Could you tell me if the measured koff of ActRIIB(K74A 20-134)-hFc (Fc fusion, not shown: linker (if any) and human Fc (hFc)) GRGEAETRECIYYNANWELERTNQSGLERCEGEQDKRLHCYASWRNSSGTIELVAKGCWLDDFNCYDRQECVATEENPQVYFCCCEGNFCNERFTHLPEAGGPEVTYEPPPTAPT reaches 0.0002 s⁻¹ or more?
Output line: class 0
